biological target: Protein farnesyltransferase (Homo sapiens, UniProt P49354+P49356); assay: Effective concentration required for inhibition of farnesylation of Ras protein in NIH3T3 cells
Measured parameter: EC50 (nM)
Write it as a number; the unit nM goes unstated.

The molecule Cc1ncc(C(OCc2ccc(C#N)cc2-c2cccc(Cl)c2)c2ccc(C#N)cc2)n1C (centres undefined) on Protein farnesyltransferase (Homo sapiens, UniProt P49354+P49356): EC50 was 154

Param item: Cn1cncc1C(OCc1ccc(C#N)cc1C(=O)Nc1cccc(Cl)c1)c1ccc(C#N)cc1 (centres undefined) ; param system: Protein farnesyltransferase (Homo sapiens, UniProt P49354+P49356); output EC50: 3.5

The molecule Cn1cncc1C(OCc1ccc(C#N)cc1-c1cccc(Cl)c1)c1ccc(C#N)cc1 (centres undefined) on Protein farnesyltransferase (Homo sapiens, UniProt P49354+P49356): EC50 was 5.2

Simply: Cn1cncc1C(OCc1ccc(C#N)cc1-c1cccc(Cl)c1)c1ccc(C#N)cc1F (centres undefined) , Protein farnesyltransferase (Homo sapiens, UniProt P49354+P49356), EC50 = 3.3

Note to self: EC50 of COc1cccc(-c2cc(C#N)ccc2COC(c2ccc(Cl)cc2)c2cncn2C)c1 (centres undefined) with Protein farnesyltransferase (Homo sapiens, UniProt P49354+P49356) was 17.7

Here COc1cccc(-c2cc(Cl)ccc2COC(c2ccc(C#N)cc2)c2cncn2C)c1 (centres undefined) was tested on Protein farnesyltransferase (Homo sapiens, UniProt P49354+P49356), and its EC50 came to 100

Summary line: Cn1cncc1C(OCc1ccc(C#N)cc1-c1cccc2ccccc12)c1ccc(C#N)cc1 (centres undefined) , Protein farnesyltransferase (Homo sapiens, UniProt P49354+P49356), reported EC50 = 14

Tested on Protein farnesyltransferase (Homo sapiens, UniProt P49354+P49356): COc1ccc(-c2cc(C#N)ccc2COC(c2ccc(C#N)cc2)c2cncn2C)cc1 (centres undefined) . Observed EC50: 7

Test item Cn1cncc1C(OCc1ccc(C#N)cc1-c1cccc(Cl)c1)c1ccc(C#N)c(F)c1 (centres undefined) ; Protein farnesyltransferase (Homo sapiens, UniProt P49354+P49356); reported EC50 was 36

* * *

assay: in vivo; settings: dog, plasma
Hi there, I'd appreciate the recorded clearance for every entry that follows.
Only the number, expressed in mL/min/kg, is required.

Summary for this molecule, Cn1cncc1C(OCc1ccc(C#N)cc1-c1ccc2c(c1)OC(F)(F)O2)c1ccc(C#N)cc1 (stereo not given) : clearance is 5.17

The reported clearance of the molecule Cn1cncc1C(OCc1ccc(C#N)cc1-c1cccc(Cl)c1)c1ccc(C#N)cc1 (stereo not given) was 6.67

Given item Cc1ncc(C(OCc2ccc(C#N)cc2-c2ccc3c(c2)OCO3)c2ccc(C#N)cc2)n1C (stereo not given) , the value recorded as its clearance is 31.2

Reported clearance ( COc1ccc(-c2cc(C#N)ccc2COC(c2ccc(C#N)cc2)c2cncn2C)cc1 (stereo not given) ) = 12.2

// field: clearance; key: Cn1cncc1C(OCc1ccc(C#N)cc1-c1cccc(Cl)c1)c1ccc(C#N)c(F)c1 (stereo not given) ; value = 8

* * *

biological target: Protein farnesyltransferase (Homo sapiens, UniProt P49354+P49356); experiment: Inhibition of Farnesyltransferase; type: protein-complex assay
Hi there, I'd appreciate the recorded pIC50 for every entry that follows.
Please note pIC50 is a logarithmic value: minus log10 of concentration in mol/L. Answer with that number alone.

Per the reported Protein farnesyltransferase (Homo sapiens, UniProt P49354+P49356) data, Cn1cncc1C(OCc1ccc(C#N)cn1)c1ccc(C#N)c(-c2cccc3ccccc23)c1 (configuration not stated) has pIC50 of 9.40

Fill in: Protein farnesyltransferase (Homo sapiens, UniProt P49354+P49356) pIC50 for Cn1cncc1C(OCc1ccc(C#N)cc1)c1ccc(C#N)c(-c2cccc3ccccc23)c1 (configuration not stated) = 9.52
